This section presents compounds with their documented pIC50 values.
- TARGET DESC: Transient receptor potential cation channel subfamily V member 1 (Homo sapiens, UniProt Q8NER1)
- Sequence (Q8NER1 whole entry): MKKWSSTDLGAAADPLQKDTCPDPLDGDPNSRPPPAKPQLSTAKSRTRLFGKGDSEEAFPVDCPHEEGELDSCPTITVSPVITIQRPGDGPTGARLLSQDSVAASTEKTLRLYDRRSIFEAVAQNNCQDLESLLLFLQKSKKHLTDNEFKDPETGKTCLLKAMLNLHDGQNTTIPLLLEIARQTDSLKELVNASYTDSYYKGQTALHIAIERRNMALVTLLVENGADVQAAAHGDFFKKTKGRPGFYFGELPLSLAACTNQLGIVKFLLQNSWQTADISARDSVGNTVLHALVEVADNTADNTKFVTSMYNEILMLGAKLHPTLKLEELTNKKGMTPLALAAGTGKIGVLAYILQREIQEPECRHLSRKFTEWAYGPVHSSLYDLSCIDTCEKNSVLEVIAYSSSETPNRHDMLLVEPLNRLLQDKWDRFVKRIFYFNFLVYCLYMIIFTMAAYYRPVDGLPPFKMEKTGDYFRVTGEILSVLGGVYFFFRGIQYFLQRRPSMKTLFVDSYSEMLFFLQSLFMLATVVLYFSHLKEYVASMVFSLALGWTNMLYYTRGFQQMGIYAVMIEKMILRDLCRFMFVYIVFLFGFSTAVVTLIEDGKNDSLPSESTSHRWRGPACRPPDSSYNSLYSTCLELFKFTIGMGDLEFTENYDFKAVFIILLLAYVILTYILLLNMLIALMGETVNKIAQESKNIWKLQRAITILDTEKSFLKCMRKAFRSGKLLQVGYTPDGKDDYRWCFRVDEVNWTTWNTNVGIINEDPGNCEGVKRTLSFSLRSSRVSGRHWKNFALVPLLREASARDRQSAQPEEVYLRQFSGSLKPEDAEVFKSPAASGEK
- METHOD SUMMARY: Antagonist activity at human TRPV1 heterologously expressed in CHO cells assessed as inhibition of low pH-induced activation
- Type: cell-based
Interpret pIC50 as the negative base-10 log of the concentration measured in mol/L.

INSERT INTO measurements (compound, reported_value) VALUES
  ('C[C@H](C(=O)NCc1ccc(C(F)(F)F)cc1SC1CCCCC1)c1ccc(NS(C)(=O)=O)c(F)c1', 7.69);

In: Tell me the measured pIC50 of CC(C(=O)NCc1ccc(C(F)(F)F)cc1SC1CCCC1)c1ccc(NS(C)(=O)=O)c(F)c1 (configuration not stated) , please.
Out: 7.49

====

This section presents compounds with their documented pKi values.
- TARGET DESC: Transient receptor potential cation channel subfamily V member 1 (Homo sapiens, UniProt Q8NER1)
- METHOD SUMMARY: Antagonist activity at human TRPV1 heterologously expressed in CHO cells assessed as inhibition of capsaicin-induced activation by FLIPR assay
- Format: cell-based
- ASSAY CONTEXT: read-out: Ki
Interpret pKi as the negative base-10 log of the concentration measured in mol/L.

INSERT INTO measurements (compound, reported_value) VALUES
  ('CC(C(=O)NCc1ccc(C(F)(F)F)cc1SCc1ccccc1Cl)c1ccc(NS(C)(=O)=O)c(F)c1 (stereo not drawn)', 9.05),
  ('CC(C(=O)NCc1ccc(C(F)(F)F)cc1SCc1ccc(Cl)cc1)c1ccc(NS(C)(=O)=O)c(F)c1 (stereo not drawn)', 8.96);

Switching to the query record.
In: Tell me the measured pKi of CCCOc1cc(C(F)(F)F)ccc1CNC(=O)C(C)c1ccc(NS(C)(=O)=O)c(F)c1 (stereo not drawn) , please.
Out: 8.70

====

- TARGET DESC: UniProtKB Q8NER1
- METHOD SUMMARY: Antagonist activity at human TRPV1 heterologously expressed in CHO cells assessed as inhibition of capsaicin-induced activation by FLIPR assay
- Assay type: cell-based
- ASSAY CONTEXT: read-out: Ki
OUTCOME MEASURE: pKi
Interpret pKi as the negative base-10 log of the concentration measured in mol/L.

Here is how some compounds turned out for pKi.
INSERT INTO measurements (compound, target_desc, reported_value) VALUES
  ('CC(C)COc1cc(C(F)(F)F)ccc1CNC(=O)C(C)c1ccc(NS(C)(=O)=O)c(F)c1 (stereo not drawn)', 'UniProtKB Q8NER1', 9.10),
  ('CC(C(=O)NCc1ccc(C(F)(F)F)cc1N1CCC(Cc2ccc(F)cc2)CC1)c1ccc(NS(C)(=O)=O)c(F)c1 (stereo not drawn)', 'UniProtKB Q8NER1', 9.40),
  ('CC(C(=O)NCc1ccc(C(F)(F)F)cc1SC1CCCCC1)c1ccc(NS(C)(=O)=O)c(F)c1 (stereo not drawn)', 'UniProtKB Q8NER1', 9.30),
  ('CC(C)CCSc1cc(C(F)(F)F)ccc1CNC(=O)C(C)c1ccc(NS(C)(=O)=O)c(F)c1 (stereo not drawn)', 'UniProtKB Q8NER1', 8.85);

In: Tell me the measured pKi of CCCCSc1cc(C(F)(F)F)ccc1CNC(=O)C(C)c1ccc(NS(C)(=O)=O)c(F)c1 (stereo not drawn) , please.
Out: 8.72

In: Now consider CC(C(=O)NCc1ccc(C(F)(F)F)nc1N1CCC(C(F)(F)F)CC1)c1ccc(NS(C)(=O)=O)c(F)c1 (stereo not drawn) and answer again.
Out: 9.40

In: Now consider CC(C(=O)NCc1ccc(C(F)(F)F)cc1OCc1ccc(F)cc1)c1ccc(NS(C)(=O)=O)c(F)c1 (stereo not drawn) and answer again.
Out: 9.30

In: Now consider COc1ccc(CSc2cc(C(F)(F)F)ccc2CNC(=O)C(C)c2ccc(NS(C)(=O)=O)c(F)c2)cc1 (stereo not drawn) and answer again.
Out: 8.64
